- Tested on: SN12C (Renal Cancer)
- MEASUREMENT_PROTOCOL: NCI one dose, SN12C
- Type: cell-based, human
- ASSAY_CONTEXT: 1.00E-5 Molar one dose
- Protocol: 3.4. Cell Proliferation Assay Selected compounds were tested on a panel of 60 human cancer cell lines at the National Cancer Institute (NCI), Germantown, MD, USA. The cytotoxicity studies were conducted using a 48 h exposure protocol using the sulfo-rhodamine B assay.
The compounds listed here are annotated with their Growth Percent.
MEASURED_METRIC: Growth Percent (%)

COc1cc(CNC(=O)[C@@H]2CS[C@@]3(C)c4ccccc4C(=O)N23)cc(OC)c1OC : 91.58
C[C@@]12SC[C@@H](C(=O)NCc3ccccc3C(F)(F)F)N1C(=O)c1ccccc12 : 94.74
C[C@@]12SC[C@@H](C(=O)NCc3ccccc3Br)N1C(=O)c1ccccc12 : 89.32
O=C(NCc1ccc(Cl)cc1Cl)[C@@H]1CS[C@H]2c3ccccc3C(=O)N12 : 98.06
COc1ccc(CNC(=O)[C@@H]2CS[C@H]3c4ccccc4C(=O)N23)cc1 : 110.21
C[C@@]12SC[C@@H](C(=O)NCc3ccccc3)N1C(=O)c1ccccc12 : 95.20
COc1cccc(CNC(=O)[C@@H]2CS[C@H]3c4ccccc4C(=O)N23)c1 : 105.19
O=C(NCc1cccc(C(F)(F)F)c1)[C@@H]1CS[C@H]2c3ccccc3C(=O)N12 : 98.14
C[C@@]12SC[C@@H](C(=O)NCc3cccc(C(F)(F)F)c3)N1C(=O)c1ccccc12 : 93.35

----------
- System: SNB-75 (CNS Cancer)
- MEASUREMENT_PROTOCOL: NCI one dose, SNB-75
- Assay type: cell-based, human
- ASSAY_CONTEXT: SNB-75, 1.00E-5 Molar one dose
MEASURED_METRIC: Growth Percent (%)

O=C(NCc1ccc(Cl)cc1Cl)[C@@H]1CS[C@H]2c3ccccc3C(=O)N12 : 89.63
C[C@@]12SC[C@@H](C(=O)NCc3cccc(C(F)(F)F)c3)N1C(=O)c1ccccc12 : 93.18
C[C@@]12SC[C@@H](C(=O)NCc3ccc(Cl)cc3Cl)N1C(=O)c1ccccc12 : 99.75
C[C@@]12SC[C@@H](C(=O)NCc3ccccc3)N1C(=O)c1ccccc12 : 88.09
O=C(NCc1ccccc1C(F)(F)F)[C@@H]1CS[C@H]2c3ccccc3C(=O)N12 : 85.21
COc1cc(CNC(=O)[C@@H]2CS[C@@]3(C)c4ccccc4C(=O)N23)cc(OC)c1OC : 97.50
COc1ccc(CNC(=O)[C@@H]2CS[C@H]3c4ccccc4C(=O)N23)cc1 : 114.38
COc1ccc(CNC(=O)[C@@H]2CS[C@@]3(C)c4ccccc4C(=O)N23)cc1OC : 110.74
COc1ccccc1CNC(=O)[C@@H]1CS[C@@]2(C)c3ccccc3C(=O)N12 : 96.63
COc1ccc(CNC(=O)[C@@H]2CS[C@@]3(C)c4ccccc4C(=O)N23)cc1 : 94.53
O=C(NCc1ccccc1)[C@@H]1CS[C@H]2c3ccccc3C(=O)N12 : 84.04
COc1cccc(CNC(=O)[C@@H]2CS[C@@]3(C)c4ccccc4C(=O)N23)c1 : 98.09
C[C@@]12SC[C@@H](C(=O)NCc3ccccc3Br)N1C(=O)c1ccccc12 : 92.47
C[C@@]12SC[C@@H](C(=O)NCc3ccccc3C(F)(F)F)N1C(=O)c1ccccc12 : 96.49
O=C(NCc1cccc(C(F)(F)F)c1)[C@@H]1CS[C@H]2c3ccccc3C(=O)N12 : 75.92
COc1cccc(CNC(=O)[C@@H]2CS[C@H]3c4ccccc4C(=O)N23)c1 : 100.11
COc1cc(CNC(=O)[C@@H]2CS[C@H]3c4ccccc4C(=O)N23)cc(OC)c1OC : 86.61
COc1ccc(CNC(=O)[C@@H]2CS[C@H]3c4ccccc4C(=O)N23)cc1OC : 95.63
COc1ccccc1CNC(=O)[C@@H]1CS[C@H]2c3ccccc3C(=O)N12 : 98.49

----------
- ASSAY_SYSTEM: human farnesyltransferase (FTase) (Homo sapiens, UniProt P49354+P49356)
- MEASUREMENT_PROTOCOL: FTase inhibitory assay (fluorescence, Dansyl-GCVLS)
- Format: biochemical
- ASSAY_CONTEXT: inhibition of human FTase at 100 μM of tested compound; mean of two experiments
- Method: With 40 new products in hand, the determination of their inhibitory activity on human farnesyl-transferase (FTase) in vitro was first undertaken. […] Assays were realized in 96-well plates, prepared with a Biomek NKMC and a Biomek 3000 from Beckman Coulter, and read on a Wallac Victor fluorimeter from PerkinElmer. […] Fluorescence was recorded for 15 min (0.7 s per well, 20 repeats) at 30 °C with an excitation filter at 340 nm and an emission filter of 486 nm. […]
MEASURED_METRIC: % FTI (%)

COc1ccccc1CNC(=O)[C@@H]1CS[C@H]2c3ccccc3C(=O)N12 : 21
COc1cccc(CNC(=O)[C@@H]2CS[C@H]3c4ccccc4C(=O)N23)c1 : 35
C[C@@]12SC[C@@H](C(=O)NCc3ccccc3)N1C(=O)c1ccccc12 : 49
O=C(NCc1cccc(C(F)(F)F)c1)[C@@H]1CS(=O)(=O)[C@H]2c3ccccc3C(=O)N12 : 28
C[C@]12c3ccccc3C(=O)N1[C@H](C(=O)NCc1cccc(C(F)(F)F)c1)CS2(=O)=O : 32
CC12c3ccccc3C(=O)N1C(C(=O)NCc1ccccc1)C[S+]2[O-] (centres unmarked) : 30
COc1ccc(CNC(=O)[C@@H]2CS[C@H]3c4ccccc4C(=O)N23)cc1OC : 62
CCCCCCCCCCCCCC/C(C(=O)O)=C(\C)C(=O)O [Ref., Chaetomellic acid A, reference compound] : 100
COc1ccc(CNC(=O)[C@@H]2CS(=O)(=O)[C@H]3c4ccccc4C(=O)N23)cc1 : 34
C[C@@]12SC[C@@H](C(=O)NCc3ccc(Cl)cc3Cl)N1C(=O)c1ccccc12 : 22
C[C@]12c3ccccc3C(=O)N1[C@H](C(=O)NCc1ccccc1)CS2(=O)=O : 41
O=C(NCc1ccccc1)[C@@H]1CS(=O)(=O)[C@H]2c3ccccc3C(=O)N12 : 20
COc1cc(CNC(=O)[C@@H]2CS[C@H]3c4ccccc4C(=O)N23)cc(OC)c1OC : 23
COc1ccccc1CNC(=O)[C@@H]1CS[C@@]2(C)c3ccccc3C(=O)N12 : 30

----------
- Test system: CCRF-CEM (Leukemia)
- MEASUREMENT_PROTOCOL: NCI one dose, CCRF-CEM
- Assay type: cell-based, human
- ASSAY_CONTEXT: 1.00E-5 Molar one dose
- Description: 3.4. Cell Proliferation Assay Selected compounds were tested on a panel of 60 human cancer cell lines at the National Cancer Institute (NCI), Germantown, MD, USA. The cytotoxicity studies were conducted using a 48 h exposure protocol using the sulfo-rhodamine B assay.
MEASURED_METRIC: Growth Percent

C[C@@]12SC[C@@H](C(=O)NCc3ccccc3Br)N1C(=O)c1ccccc12 : 88.50%
O=C(NCc1ccccc1C(F)(F)F)[C@@H]1CS[C@H]2c3ccccc3C(=O)N12 : 93.25%
COc1cccc(CNC(=O)[C@@H]2CS[C@H]3c4ccccc4C(=O)N23)c1 : 102.31%
COc1ccc(CNC(=O)[C@@H]2CS[C@@]3(C)c4ccccc4C(=O)N23)cc1OC : 81.76%
COc1ccc(CNC(=O)[C@@H]2CS[C@@]3(C)c4ccccc4C(=O)N23)cc1 : 93.94%

----------
The molecules listed here are annotated with their Growth Percent.
- Tested on: A549/ATCC (Non-Small Cell Lung Cancer)
- MEASUREMENT_PROTOCOL: NCI one dose, A549/ATCC
- Format: cell-based, human
- ASSAY_CONTEXT: 1.00E-5 Molar one dose
MEASURED_METRIC: Growth Percent (%)

COc1cc(CNC(=O)[C@@H]2CS[C@@]3(C)c4ccccc4C(=O)N23)cc(OC)c1OC [4bJ] : 83.12
C[C@@]12SC[C@@H](C(=O)NCc3ccccc3C(F)(F)F)N1C(=O)c1ccccc12 [4bC] : 69.56
O=C(NCc1ccccc1)[C@@H]1CS[C@H]2c3ccccc3C(=O)N12 [4aA] : 97.86
C[C@@]12SC[C@@H](C(=O)NCc3ccc(Cl)cc3Cl)N1C(=O)c1ccccc12 [4bH] : 77.42
O=C(NCc1ccc(Cl)cc1Cl)[C@@H]1CS[C@H]2c3ccccc3C(=O)N12 [4aH] : 97.39
COc1ccc(CNC(=O)[C@@H]2CS[C@@]3(C)c4ccccc4C(=O)N23)cc1 [4bF] : 80.46
O=C(NCc1cccc(C(F)(F)F)c1)[C@@H]1CS[C@H]2c3ccccc3C(=O)N12 [4aD] : 94.49
C[C@@]12SC[C@@H](C(=O)NCc3ccccc3Br)N1C(=O)c1ccccc12 [4bB] : 77.15
COc1ccccc1CNC(=O)[C@@H]1CS[C@@]2(C)c3ccccc3C(=O)N12 [4bG] : 78.33
O=C(NCc1ccccc1C(F)(F)F)[C@@H]1CS[C@H]2c3ccccc3C(=O)N12 [4aC] : 90.42
COc1cc(CNC(=O)[C@@H]2CS[C@H]3c4ccccc4C(=O)N23)cc(OC)c1OC [4aJ] : 98.15
COc1ccccc1CNC(=O)[C@@H]1CS[C@H]2c3ccccc3C(=O)N12 [4aG] : 78.79
COc1cccc(CNC(=O)[C@@H]2CS[C@@]3(C)c4ccccc4C(=O)N23)c1 [4bE] : 76.25
COc1cccc(CNC(=O)[C@@H]2CS[C@H]3c4ccccc4C(=O)N23)c1 [4aE] : 83.51
COc1ccc(CNC(=O)[C@@H]2CS[C@H]3c4ccccc4C(=O)N23)cc1OC [4aI] : 74.91
C[C@@]12SC[C@@H](C(=O)NCc3cccc(C(F)(F)F)c3)N1C(=O)c1ccccc12 [4bD] : 77.57
C[C@@]12SC[C@@H](C(=O)NCc3ccccc3)N1C(=O)c1ccccc12 [4bA] : 78.86
COc1ccc(CNC(=O)[C@@H]2CS[C@@]3(C)c4ccccc4C(=O)N23)cc1OC [4bI] : 79.51
COc1ccc(CNC(=O)[C@@H]2CS[C@H]3c4ccccc4C(=O)N23)cc1 [4aF] : 95.62
